system: NCI-H226 lung; assay: NCI-60 one-dose screen, 48 h; settings: 10 µM unless noted
This is part of a sample that, as a whole, favours compounds with a hit. Of some 83,000 tested, about 20% had one in any assay. Activity calls are given as the source filed them. The calls were made as follows: active = growth percent below 10; inactive = the rest.
Labels: active, inactive

>  <compound>
NS(=O)(=O)c1ccc(N/C=C/C(=O)c2cc3ccccc3oc2=O)cc1

>  <categoryLabel>
inactive

$$$$
>  <compound>
Cn1cc(-c2nonc2-c2c[nH]c3ccc(F)cc23)c2cc(Br)ccc21

>  <categoryLabel>
inactive

$$$$
>  <compound>
COc1ccc(/C=C/C(=O)c2ccc(Nc3nc(Nc4ccc(F)cc4)nc(Nc4ccc(Cl)cc4)n3)cc2)cc1

>  <categoryLabel>
inactive

$$$$
>  <compound>
COc1cc2c(c(OC)c1OC)C(=O)N[C@@H]1[C@@H](O)[C@@H](O)[C@H](O)C[C@@H]21

>  <categoryLabel>
inactive

$$$$
>  <compound>
N/C(=N\c1nc2ccccc2s1)NC(=NC1CCCCC1)NC1CCCCC1

>  <categoryLabel>
inactive

$$$$
>  <compound>
O=C(CCC(=O)c1nc2ncccc2[nH]1)NN1C(=O)CSC1c1ccc(Cl)cc1 (stereo unspecified)

>  <categoryLabel>
inactive

$$$$
>  <compound>
Cc1ccc(/C=C(\C#N)C(=O)Nc2ncc(Cc3cc(Cl)ccc3Cl)s2)o1

>  <categoryLabel>
inactive

$$$$
>  <compound>
COC(=O)/C(CCC=C(C)C)=C1\[C@@H](OC(C)=O)C[C@@]2(C)[C@H]1CC(=O)[C@H]1[C@@]3(C)CCC(N4CCCC4)[C@@H](C)[C@@H]3CC[C@@]12C (stereo partly specified)

>  <categoryLabel>
inactive

$$$$
>  <compound>
CC/C=C\C/C=C/C=C1/C(=O)C=C[C@@H]1C/C=C\CCCC(=O)OC

>  <categoryLabel>
inactive

$$$$
>  <compound>
COc1ccc(C(c2cc(OC)c(OC)c(OC)c2)N2CCCC2)cc1 (stereo unspecified)

>  <categoryLabel>
inactive

$$$$
>  <compound>
CC(C)C[C@@H](C(=O)N[C@H](C(=O)OC1CCCC1)c1ccccc1)[C@H](O)C(=O)NO

>  <categoryLabel>
inactive

$$$$
>  <compound>
CC(O)c1ncc(/C=C2\SC(=S)N(Cc3ccccc3)C2=O)s1 (stereo unspecified)

>  <categoryLabel>
inactive

$$$$
>  <compound>
CCCC(O)Cn1ncc(C(=O)OCC)c1NC(=O)NCc1cccc(F)c1 (stereo unspecified)

>  <categoryLabel>
inactive

$$$$
>  <compound>
Cc1cc(N2CCCCC2)nc(N2CCN(CC(=O)Nc3ccc4c(ccn4Cc4ccccc4)c3)CC2)n1

>  <categoryLabel>
inactive

$$$$
>  <compound>
COc1cc(/C=C2\CN(S(=O)(=O)c3ccc(C)cc3)C/C(=C\c3cc(CN4CCCCC4)c(O)c(OC)c3)C2=O)cc(CN2CCCCC2)c1O

>  <categoryLabel>
active

$$$$
>  <compound>
Cc1nn(-c2ccccc2)c(N2CCCCC2)c1/C=N/NC(=O)Cn1c(=O)sc2ccccc21

>  <categoryLabel>
inactive

$$$$

---

system: CCRF-CEM leukemia; assay: NCI-60 one-dose screen, 48 h (100 = growth as untreated, 0 = no growth, -100 = all killed); settings: 10 µM unless noted
The panel holds about 83,000 compounds, 20% with a hit somewhere; the sample as a whole holds those more often.
Below is a list of entries, each paired with its recorded growth value.

>  <smilesNotation>
COc1cccc(/C=C/C(=O)c2cc3c(N)c(C(=O)Nc4ccccc4C)sc3nc2C)c1

>  <outputUnit>
%

>  <growth>
9.22

$$$$
>  <smilesNotation>
Nc1c(C(=O)Nc2ccncc2)sc2nc3c(cc12)CCCCC3

>  <outputUnit>
%

>  <growth>
54.4

$$$$
>  <smilesNotation>
C[C@H]1[C@H](C)CC[C@]2(C(=O)O)CC[C@]3(C)C(=CC[C@@H]4[C@@]5(C)C[C@@H](Cc6cn([C@@H]7O[C@H](CO)[C@@H](O)[C@H](O)[C@H]7O)nn6)[C@H](O)C(C)(C)[C@@H]5CC[C@]43C)[C@H]12

>  <outputUnit>
%

>  <growth>
99.3

$$$$
>  <smilesNotation>
CC[C@]12C=CCN3CC[C@@]4(c5ccc(OC)cc5N(C)[C@H]4[C@@](O)(C(=O)OC)[C@@H]1OC(=O)CCCN1CCOCC1)[C@@H]32

>  <outputUnit>
%

>  <growth>
107

$$$$
>  <smilesNotation>
Cn1c(O)c(C(/C=C/c2ccccc2)=Nc2ccccc2N)c(=O)n(C)c1=O

>  <outputUnit>
%

>  <growth>
67.3

$$$$
>  <smilesNotation>
O=C(Cn1nnc2ccccc21)N/N=C/c1ccccc1F

>  <outputUnit>
%

>  <growth>
103

$$$$
>  <smilesNotation>
O=C(CSc1nnc2sc(Nc3cccc(Cl)c3)nn12)c1ccc(F)cc1

>  <outputUnit>
%

>  <growth>
91.1

$$$$
>  <smilesNotation>
O=C1NC(=Nc2ccc(O)cc2)S/C1=C\c1cccs1

>  <outputUnit>
%

>  <growth>
11.9

$$$$
